- Test Name: Binding affinity to adrenergic alpha1 receptor
Property Measured: Ki (nM)
One number for each entry, in nM.

Form field Ki, entry COc1cccc(OC)c1OCCNCC1COc2ccccc2O1 (stereo unspecified) : 0.54
